Answer each item with its documented Activity.
target: UniProt Q60795; test: Activation of Nrf2 in mouse Hepa1c1c7 cells assessed as increase in NQO1 activity at 0.9 uM; assay type: cell-based; settings: filed as activator
Sequence (Q60795 whole entry): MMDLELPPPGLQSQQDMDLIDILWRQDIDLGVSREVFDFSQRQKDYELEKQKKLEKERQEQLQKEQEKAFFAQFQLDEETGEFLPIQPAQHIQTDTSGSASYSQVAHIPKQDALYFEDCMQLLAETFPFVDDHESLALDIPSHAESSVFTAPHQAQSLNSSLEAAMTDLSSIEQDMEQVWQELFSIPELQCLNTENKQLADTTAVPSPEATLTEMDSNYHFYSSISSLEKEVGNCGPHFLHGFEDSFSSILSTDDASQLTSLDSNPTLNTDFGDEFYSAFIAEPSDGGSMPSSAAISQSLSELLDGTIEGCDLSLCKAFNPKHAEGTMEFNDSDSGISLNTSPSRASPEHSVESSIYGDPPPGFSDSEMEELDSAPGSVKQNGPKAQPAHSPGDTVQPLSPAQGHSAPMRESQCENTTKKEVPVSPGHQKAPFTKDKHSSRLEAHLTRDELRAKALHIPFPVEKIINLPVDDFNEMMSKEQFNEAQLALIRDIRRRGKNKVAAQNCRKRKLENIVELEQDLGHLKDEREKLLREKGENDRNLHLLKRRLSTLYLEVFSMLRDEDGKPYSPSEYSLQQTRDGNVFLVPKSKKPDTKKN

// Activity (UniProt Q60795) for `NS(=O)(=O)c1ccc(-n2c(SCC(=O)Nc3c(Cl)cc(Cl)cc3Cl)nc3c(I)cc(I)cc3c2=O)cc1` = 1.06

// Activity (UniProt Q60795) for `NS(=O)(=O)c1ccc(-n2c(SCC(=O)Nc3ccccc3F)nc3c(I)cc(I)cc3c2=O)cc1` = 1.11

// Activity (UniProt Q60795) for `NS(=O)(=O)c1ccc(-n2c(SCC(=O)Nc3ccc(Br)cc3Br)nc3c(I)cc(I)cc3c2=O)cc1` = 1

// Activity (UniProt Q60795) for `NS(=O)(=O)c1ccc(-n2c(SCC(=O)Nc3cccnc3)nc3c(I)cc(I)cc3c2=O)cc1` = 1

// Activity (UniProt Q60795) for `NS(=O)(=O)c1ccc(-n2c(SCC(=O)Nc3cccc(F)c3)nc3c(I)cc(I)cc3c2=O)cc1` = 1.07
